assayTarget: HRgpA-6H (Porphyromonas gingivalis) (UniProt P28784)
protocolText: ELISA, coated HRgpA-6H
measurementName: Ratio OD(Variant)/OD(WT)
One number for each entry.

// worked examples, Ratio OD(Variant)/OD(WT) included
- binder: "KB001 mouse Fab VH G55N (Fab, V domains shown) VH: EVQLKQSGPGLVAPSQSLSITCTVSGFSLSIYSVHWVRQPPGKGLEWLGMIWGGNSSDYNSALKSRLSISKDNSKSQVFLKMNSLQTDDTAMYYCARNGNFYAMDYWGQGTSVTVSS VL: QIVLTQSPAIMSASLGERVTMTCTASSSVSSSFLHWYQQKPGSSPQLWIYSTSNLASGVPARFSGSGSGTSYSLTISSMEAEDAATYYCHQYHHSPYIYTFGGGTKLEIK"
  Ratio OD(Variant)/OD(WT): 0.81
- binder: "KB001 mouse Fab VL S28N (Fab, V domains shown) VH: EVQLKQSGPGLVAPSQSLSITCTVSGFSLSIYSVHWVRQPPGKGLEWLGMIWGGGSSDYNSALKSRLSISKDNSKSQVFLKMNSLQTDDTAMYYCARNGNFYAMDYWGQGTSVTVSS VL: QIVLTQSPAIMSASLGERVTMTCTASSNVSSSFLHWYQQKPGSSPQLWIYSTSNLASGVPARFSGSGSGTSYSLTISSMEAEDAATYYCHQYHHSPYIYTFGGGTKLEIK"
  Ratio OD(Variant)/OD(WT): 0.99

input: // returns reported Ratio OD(Variant)/OD(WT) for input KB001 mouse Fab VH D58G (Fab, V domains shown) VH: EVQLKQSGPGLVAPSQSLSITCTVSGFSLSIYSVHWVRQPPGKGLEWLGMIWGGGSSGYNSALKSRLSISKDNSKSQVFLKMNSLQTDDTAMYYCARNGNFYAMDYWGQGTSVTVSS VL: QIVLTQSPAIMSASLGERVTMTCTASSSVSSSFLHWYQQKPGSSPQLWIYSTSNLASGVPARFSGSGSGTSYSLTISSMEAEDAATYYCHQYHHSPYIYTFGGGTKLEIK
output: 0.984
